I'd appreciate it if you could supply koff values for the items below.
Target: T1, cynomolgus SIRP-α D1 domain (cyno2) (cynomolgus monkey, UniProt Q5TFQ8 30-148 (human entry), limits assumed)
T1 chain: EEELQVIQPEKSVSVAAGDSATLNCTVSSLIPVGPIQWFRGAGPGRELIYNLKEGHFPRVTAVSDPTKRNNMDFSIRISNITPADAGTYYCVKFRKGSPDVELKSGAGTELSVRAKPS
Experiment: SPR, Langmuir fit
Return type: number; implicit unit s⁻¹.

Returns the measured koff for the input binder. Input: S189 (scFv, V domains shown) VH: DVQLVESGGGVVRPGESLRLSCAASGFTFSSSDMNWVRQAPGEGLEWVSLISGSGEITYYADSVKGRFTISRDNSKNTLYLQMNSLRAEDTAIYYCAKENNMYRFFDYWGLGTLVTVSS VL: ETVLTQSPGTLSLSPGERATLSCRASQSVYTYLAWYQQKPGQPPRLLIHAARNRAAGIPDRFSGSGSGTEFTLTISSLQSEDFAVYYCQQYYDRPPLTFGGGTKVEIK
0.00187

Let us now turn to S29 (scFv, V domains shown, also called clone 29) VH: DVQLVESGGGVVRPGESLRLSCAVSGFRFSSYAMSWVRQAPGKGLEWVSGISSDSDAYYVDSVKGRFTISRDNSKNTLYLQVNSLTAEDTAVYYCARETWNHLFDYWGLGTMVTVSS VL: ALTQPASVSANLGETVKITCSGGDSSSHYYGWFQQKSPGSAPVTLIYSDDERPSDIPSRFSGSASGSTATLTITGVRVEDEAIYFCGAYDGSTYTNTFGAGTTLTVL
0.000369

Let us now turn to S213 (scFv, V domains shown, also called clone 213) VH: DVQLVESGGGVVRPGESLRLSCEASGFTFRNYYMTWVRQAPGEGLEWVSTISDTGDTAYYADSVKGRFTISRDNSKNSLYLQMNSLRADDTAIYYCAKSWIWWTFFDYWGLGTLVTVSS VL: ALTQPASVSANLGGTVEITCSGGNSNHYGWYQQKSPGSAPVTLIYADTNRPSNIPSRFSGSTSGSTTTLTITGVQAEDEAVYYCGGSSTGDGIFGAGTTLTVL
0.00313

// data source = patent US20210363269A1
